Molecular target: OTU domain-containing protein 3 (Homo sapiens) (UniProt Q5T2D3)
Sequence (Q5T2D3 whole entry, looked up, the tested form may be a part): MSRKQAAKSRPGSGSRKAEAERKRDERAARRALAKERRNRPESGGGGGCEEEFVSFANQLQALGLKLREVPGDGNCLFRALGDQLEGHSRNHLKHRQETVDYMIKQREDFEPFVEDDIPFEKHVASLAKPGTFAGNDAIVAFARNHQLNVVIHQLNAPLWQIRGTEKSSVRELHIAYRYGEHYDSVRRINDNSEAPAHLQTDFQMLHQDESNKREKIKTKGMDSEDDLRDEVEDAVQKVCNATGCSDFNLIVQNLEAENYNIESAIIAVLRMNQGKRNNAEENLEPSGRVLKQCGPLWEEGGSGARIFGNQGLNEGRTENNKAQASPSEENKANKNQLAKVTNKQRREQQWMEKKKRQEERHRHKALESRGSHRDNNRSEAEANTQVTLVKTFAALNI
Experiment: Validation of screening hits, potency titration, in vitro enzymatic, OTU domain-containing protein 3 DUB inhibitors (AID 1645868)
Settings: purified OTUD3, ubiquitin-rhodamine cleavage fluorescence, 2 h
Activity calls are given as the source filed them.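 How the source made its calls: active means maximal percent inhibition of the deubiquitinase OTUD3 of at least 30% across the tested doses; inactive means the rest.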
Would you mind answering with one of these outcomes? active, inactive

Smiles representation	Assigned label
O=C(Nc1cc(F)c2nc(N3CCOCC3)ccc2c1)c1ccc(Br)o1	inactive
O=C(Nc1cccc(C(F)(F)F)c1)c1cc2c(s1)-c1ccccc1OC2	active
Cc1ccc(NC(=O)CCC(=O)Nc2ccc3nc(N4CCCCC4)cc(C)c3c2)c(Br)c1	active

Look up the recorded call for O=C(NCc1ccccc1Cl)c1ccc2cn[nH]c2c1 in this test. inactive

Same lookup for CC(C)Cc1nc2sc3c(NCCN4CCOCC4)ncnc3c2c2c1CCC2 , please. inactive
